EXPERIMENTAL SYSTEM: P. falciparum apicoplast DNA polymerase (Pf-apPOL) (Plasmodium falciparum, UniProt Q8ILY1)
Sequence (Q8ILY1 entry or part of it): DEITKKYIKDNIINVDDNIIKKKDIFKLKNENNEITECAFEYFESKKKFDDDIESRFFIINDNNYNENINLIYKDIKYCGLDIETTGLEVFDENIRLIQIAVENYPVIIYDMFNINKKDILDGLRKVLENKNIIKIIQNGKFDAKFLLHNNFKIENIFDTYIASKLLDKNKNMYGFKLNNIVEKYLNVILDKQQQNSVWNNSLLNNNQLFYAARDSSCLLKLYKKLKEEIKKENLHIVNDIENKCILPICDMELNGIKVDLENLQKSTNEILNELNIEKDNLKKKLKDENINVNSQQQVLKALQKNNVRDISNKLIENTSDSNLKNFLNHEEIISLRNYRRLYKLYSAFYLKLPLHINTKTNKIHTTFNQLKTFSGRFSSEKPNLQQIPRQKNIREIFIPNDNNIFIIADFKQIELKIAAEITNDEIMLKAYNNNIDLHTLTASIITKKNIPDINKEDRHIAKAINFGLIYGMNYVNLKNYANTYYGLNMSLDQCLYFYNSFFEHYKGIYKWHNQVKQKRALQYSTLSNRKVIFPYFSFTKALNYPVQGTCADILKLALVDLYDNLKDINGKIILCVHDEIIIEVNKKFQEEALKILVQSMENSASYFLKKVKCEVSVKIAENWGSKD
EXPERIMENT DESCRIPTION: Fluorescence-based high-throughput DNA polymerase assay (molecular beacon), primary screen and dose-response;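 on % inhibition Apol 40': compound concentration given in µM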
Format: biochemical
EXPERIMENTAL CONTEXT: DRC-2; concentration 2.5; 40'
PROPERTY NAME: % inhibition Apol 40' (%)
Answer in %, number only, no unit symbol.

Past entries and their recorded results:
{"COMPOUND": "O=C(Cn1ccc2c(=O)[nH]ccc21)Nc1ccccc1Cl [Molecule 19, O=C(Cn1ccc2c1cc[nH]c2=O)Nc1ccccc1Cl]", "% inhibition Apol 40', %": 14}
{"COMPOUND": "CCCN1COc2ccc3c(=O)c(-c4ccccc4)coc3c2C1", "% inhibition Apol 40', %": 5}

Form field: reported % inhibition Apol 40' of CCOc1ccc2cc(C3=NN(C(=O)CCC(=O)O)C(c4ccc(C)cc4)C3)c(=O)[nH]c2c1 (stereo not shown) 0.754

Follow-up entry: COc1ccc(NC(=O)Cn2nc3c(cc2=O)CCC3)cc1Cl 18

Try this compound too: O=C1c2ccccc2C(=O)c2c1oc1c3c(ccc21)OCN(C1CCCC1)C3 17

Item: O=[N+]([O-])c1ccc(SCc2ccco2)c2cccnc12 40

Now the same for Cc1cc(C)nc(Nc2nc(CC(=O)Nc3nc(-c4ccco4)cs3)cs2)n1 9

====

EXPERIMENTAL SYSTEM: P. falciparum apicoplast DNA polymerase (Pf-apPOL) (Plasmodium falciparum, UniProt Q8ILY1)
EXPERIMENT DESCRIPTION: Fluorescence-based high-throughput DNA polymerase assay (molecular beacon), primary screen and dose-response;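 on % inhibition ApPOL 90': test concentration in µM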
Type: biochemical
EXPERIMENTAL CONTEXT: DRC-2, 90', concentration 20 (unit not given)
Source text: The HT assay employs a molecular beacon, a stem-loop DNA template with a Cy3 dye and the Black Hole Quencher on the 3′ and 5′ ends of the DNA, respectively. Pf-apPOL concentration is based on a calculated absorptivity of ε280 = 56750 M^−1 cm^−1. […] To identify apPOL inhibitors we utilised our previously developed high-throughput DNA polymerase assay. […] The assay accurately recapitulates the kinetic behaviour of apPOL, as measured through more conventional low-throughput gel-based assays. […]
PROPERTY NAME: % inhibition ApPOL 90' (%)
# value in %; strip the unit string

A selection of reference data follows.
{"COMPOUND": "CN(C)C1C(c2ccccc2)=C(c2ccccc2)SC(c2ccccc2)C1[N+](=O)[O-] (centres unmarked)", "% inhibition ApPOL 90' / %": 53}
{"COMPOUND": "CCOc1ccc(/C=C2\\N=C(c3cc([N+](=O)[O-])cc([N+](=O)[O-])c3)OC2=O)cc1", "% inhibition ApPOL 90' / %": 68}
{"COMPOUND": "O=C(Nc1cccc(C(=O)Nc2ccc(S(=O)(=O)[O-])c3cc(S(=O)(=O)[O-])cc(S(=O)(=O)[O-])c23)c1)Nc1cccc(C(=O)Nc2ccc(S(=O)(=O)[O-])c3cc(S(=O)(=O)[O-])cc(S(=O)(=O)[O-])c23)c1.[Na+].[Na+].[Na+].[Na+].[Na+].[Na+]", "% inhibition ApPOL 90' / %": 56}
{"COMPOUND": "O=c1[nH]c2ccc(Br)cc2c(-c2ccccc2)c1C1=NNC(c2ccco2)C1 (centres unmarked)", "% inhibition ApPOL 90' / %": 77}
{"COMPOUND": "O=c1cc(CN2CCCCC2)c2cc3c(cc2o1)OCO3", "% inhibition ApPOL 90' / %": 39}
{"COMPOUND": "CCCCSc1nnc2c(n1)OC(c1ccc([N+](=O)[O-])o1)Nc1ccccc1-2 (centres unmarked)", "% inhibition ApPOL 90' / %": 59}
{"COMPOUND": "Nc1c(S(=O)(=O)O)cc(Nc2ccccc2)c2c1C(=O)c1ccccc1C2=O", "% inhibition ApPOL 90' / %": 81}
{"COMPOUND": "Oc1cccc2ccc(/C=C/c3ccc4c(c3)OCO4)nc12", "% inhibition ApPOL 90' / %": 70}
{"COMPOUND": "CC(C)(C)c1cc(C(=O)C(C#N)=NNc2cccc(Cl)c2)no1", "% inhibition ApPOL 90' / %": 61}
{"COMPOUND": "Cc1cc(C)c2c(O)nc(SCC(=O)c3ccc(O)c(O)c3)nc2n1", "% inhibition ApPOL 90' / %": 71}

Reported % inhibition ApPOL 90' for P. falciparum apicoplast DNA polymerase (Pf-apPOL) (Plasmodium falciparum, UniProt Q8ILY1), given CCN1C(=O)C(=Cc2cccc(OC)c2O)SC1=S ? 8

And the next one, Cc1cccc(CC(=O)N2CCc3c(nc4cc(-c5ccccc5)[nH]n4c3=O)C2)c1 ? 66

Please do the same for CCCCc1ccc(NC(=O)CSc2nc(O)c(C#N)c(C3CCCCC3)n2)c(C)c1 as well. 48

Entry to check: OC(C#Cc1ccccc1)c1ccco1 (centres unmarked) 67
